Target under test: Human pancreatic α-amylase (HPA) (Homo sapiens, UniProt P04746)
Construct: purchased Sigma Aldrich, USA
Sequence (P04746 16-511): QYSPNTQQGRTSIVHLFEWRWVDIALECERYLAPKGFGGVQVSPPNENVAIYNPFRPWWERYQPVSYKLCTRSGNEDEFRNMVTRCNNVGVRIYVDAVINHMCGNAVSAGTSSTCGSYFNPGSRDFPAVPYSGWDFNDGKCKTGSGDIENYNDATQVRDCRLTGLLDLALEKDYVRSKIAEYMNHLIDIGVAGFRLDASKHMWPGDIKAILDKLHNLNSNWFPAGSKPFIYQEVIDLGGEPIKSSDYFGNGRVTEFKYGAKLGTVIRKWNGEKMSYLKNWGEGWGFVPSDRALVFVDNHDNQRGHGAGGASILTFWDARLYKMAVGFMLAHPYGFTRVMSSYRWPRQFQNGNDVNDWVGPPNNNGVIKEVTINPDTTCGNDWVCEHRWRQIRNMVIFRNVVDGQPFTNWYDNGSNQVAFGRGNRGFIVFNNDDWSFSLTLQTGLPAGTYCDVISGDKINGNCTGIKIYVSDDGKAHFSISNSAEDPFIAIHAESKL
Run description: Ligand binding to HPA by fluorescence quenching titration, thermodynamic parameters
Settings: 303 K
This listing pairs compounds with measured Kd.
Give just the number in µM; leave the unit off.

>>> value("CC(=O)O[C@@H]1C[C@H]2C(C)(C)C(=O)C=C[C@]2(C)[C@H]2CC[C@]3(C)C(=CC(=O)[C@H]3c3ccoc3)[C@@]21C")
200

Consider now this further compound.
Exam item: Please look at this compound and report its Kd: CC(=O)O[C@@H]1C[C@H]2C(C)(C)C(=O)C=C[C@]2(C)[C@H]2CC[C@@]3(C)[C@H](c4ccoc4)OC(=O)[C@H]4O[C@]43[C@@]21C
Marked response: 300

---

Target under test: Human pancreatic α-amylase (HPA) (Homo sapiens)
Reported property: Ki (µM)
Give just the number in µM; leave the unit off.

>>> value("CC(=O)O[C@@H]1C[C@H]2C(C)(C)C(=O)C=C[C@]2(C)[C@H]2CC[C@@]3(C)[C@H](c4ccoc4)OC(=O)[C@H]4O[C@]43[C@@]21C [gedunin]")
18.6

Consider now this further molecule.
Exam item: Please look at this molecule and report its Ki: CC(=O)O[C@@H]1C[C@H]2C(C)(C)C(=O)C=C[C@]2(C)[C@H]2CC[C@]3(C)C(=CC(=O)[C@H]3c3ccoc3)[C@@]21C [azadiradione]
Marked response: 42.2
